These measurements were taken from paper PMC7822874.

assay: in vitro; settings: human, HepG2-A16-CD81EGFP cells, uninfected
Parameter: viability at 48 h, 3 µM (%)
Provide the reading as a plain figure in %.

# input compound: OC(c1cc(-c2ccc(C(F)(F)F)cc2)nc(C(F)(F)F)c1)C1CCCCN1 (stereo not drawn) ; wanted: its viability at 48 h, 3 µM 105

# input compound: COc1cccc(C2C(C(=O)Nc3ccc(C)cc3C)=C(C)Nc3c(C(=O)Nc4ccccc4)cnn32)c1 (stereo not drawn) ; wanted: its viability at 48 h, 3 µM 99.4

# input compound: `Oc1cc2c(cc1CN1CCN(c3cccc(C(F)(F)F)c3)CC1)CCC2` ; wanted: its viability at 48 h, 3 µM 101

# input compound: `O=C(O)c1ccc(-c2nc3cnccc3[nH]2)cc1` ; wanted: its viability at 48 h, 3 µM 104

# input compound: `Cc1nn(-c2nnc(NCc3ccccc3)nn2)c(C)c1Br` ; wanted: its viability at 48 h, 3 µM 92

# input compound: `CC1=C[C@@H](CN(C)C)[C@H](C(C)C)C[C@H]1Cc1nc2ncc(Cl)cc2[nH]1` ; wanted: its viability at 48 h, 3 µM 108

# input compound: CCC(=O)N1CCc2cc(Br)cc([S+](=O)([O-])N3CCCC(C(=O)Nc4ccc(OC)c(Cl)c4)C3)c21 (stereo not drawn) ; wanted: its viability at 48 h, 3 µM 82.3

# input compound: `Fc1ccc(N2CCCN(C[C@H]3[C@@H]4CNC[C@@H]43)CC2)cc1` ; wanted: its viability at 48 h, 3 µM 124

# input compound: `COc1cccc(N=C(S)N2CCN(S(=O)(=O)c3ccc(F)cc3)CC2)c1` ; wanted: its viability at 48 h, 3 µM 89

# input compound: `COc1ccc(-n2nc(C)c([C@@H]3C=C[C@@H](NCc4cccc(Cl)c4)C3)c2C)cc1` ; wanted: its viability at 48 h, 3 µM 102

# input compound: `CCOC(=O)c1cn(CC)c2cc(N3CCSCC3)c(F)cc2c1=O` ; wanted: its viability at 48 h, 3 µM 85

# input compound: `COc1ccc2[nH]c(C[C@@H]3C[C@@H](C(C)C)[C@H](CNCc4ccccc4OC)C=C3C)nc2c1` ; wanted: its viability at 48 h, 3 µM 97.1

# input compound: `Cc1ccc(Nc2nc(NCCO)c3ccccc3n2)cc1C` ; wanted: its viability at 48 h, 3 µM 82

# input compound: `Cc1cc(N)c2cc(NC(=O)/C=C/c3ccccc3Cl)ccc2n1` ; wanted: its viability at 48 h, 3 µM 108

# input compound: N=c1n(CCN2CCCCC2)c2ccccc2n1CC(O)COc1ccc(Cl)cc1Cl (stereo not drawn) ; wanted: its viability at 48 h, 3 µM 102

# input compound: `CN(CCNC(=O)c1cc2c(-c3ccccc3F)nn(C)c2s1)C1CCCCC1` ; wanted: its viability at 48 h, 3 µM 84

# input compound: `CC1(C)Cc2c(c(N3CCOCC3)nc3snc(Br)c23)CO1` ; wanted: its viability at 48 h, 3 µM 86

# input compound: `COC(=O)c1ccc2[nH]c(C[C@@H]3C[C@@H](C(C)C)[C@H](CNC4CCCCC4)C=C3C)nc2c1` ; wanted: its viability at 48 h, 3 µM 102

# input compound: `CC(C)Cc1cc(C(=O)Nc2cc(Br)ccc2O)no1` ; wanted: its viability at 48 h, 3 µM 110

# input compound: `O=S(=O)(c1ccc(Cl)cc1)N1CCN(/C(S)=N/c2ccccc2F)CC1` ; wanted: its viability at 48 h, 3 µM 94

# input compound: `CCC(=O)N(C1=C(NC(C)C)C(=O)c2ccccc2C1=O)C(C)C` ; wanted: its viability at 48 h, 3 µM 105

# input compound: `COc1ccc(CN2CCCn3nc(C)c(-c4ccccc4Oc4ccccc4)c32)cc1O` ; wanted: its viability at 48 h, 3 µM 105

# input compound: `COc1ccc(CN[C@@H]2C=C[C@@H](c3c(C)nn(-c4ccc(OC)cc4)c3C)C2)cc1` ; wanted: its viability at 48 h, 3 µM 99.3

# input compound: `COc1ccccc1CNCC(O)(c1ccc(Cl)cc1)c1ccc(Cl)cc1` ; wanted: its viability at 48 h, 3 µM 101

# input compound: `Cc1cc(Nc2ccccc2)nc2cc(O)ccc12` ; wanted: its viability at 48 h, 3 µM 100

# input compound: `Cc1ccc(C)c(Oc2c(C(F)(F)F)oc3c(CN4CCN(C)CC4)c(O)ccc3c2=O)c1` ; wanted: its viability at 48 h, 3 µM 115

# input compound: `CN1CCN(C(=O)c2ccc3c(c2)N(Cc2ccc(C(F)(F)F)cc2)C(=O)c2ccccc2S3)CC1` ; wanted: its viability at 48 h, 3 µM 101

====

system: Plasmodium falciparum Dd2 asexual blood stage parasites; test: microbe, parasite or virus in culture; parameters: species or system Plasmodium falciparum Dd2 in human erythrocytes; single determination (one 11-point concentration-response curve); details: Plasmodium falciparum, DD2, Erythrocyte, 72 h; read-out: AC50
In plain terms, low AC50, meaning strictly below 4000 nM, gives label 1, and everything else gives label 0.

State whether 4000 nM exceeds AC50 recorded for CC(C)C(=O)OCC(=O)[C@@]12O[C@H](C3CCCCC3)O[C@@H]1C[C@H]1[C@@H]3CCC4=CC(=O)C=C[C@]4(C)[C@H]3[C@@H](O)C[C@@]12C [NCGC00167484-01] . label 1

State whether 4000 nM exceeds AC50 recorded for COc1ccc(-c2cc(C[C@@H]3CC[C@H](O)[C@@H](CNCc4ccccc4OC)O3)no2)cc1 [NCGC00421057-01] . label 1

State whether 4000 nM exceeds AC50 recorded for COc1ccc(CCNC(=O)c2cc(C(=O)c3cc(Cl)ccc3O)cn(CCc3ccc(OC)cc3)c2=O)cc1 [MLS000402334-01] . label 1

State whether 4000 nM exceeds AC50 recorded for CC1=CC(C)(C)Nc2ccc(OC(=O)c3cccnc3)cc21 [MLS000111190-01] . label 0

State whether 4000 nM exceeds AC50 recorded for CCOC(=O)C1(Cc2ccccc2Cl)CCNCC1 [NCGC00430911-01] . label 1

State whether 4000 nM exceeds AC50 recorded for COc1ccc(Nc2cc(O)c3ncccc3c2)cc1 [NCGC00183797-01] . label 1

State whether 4000 nM exceeds AC50 recorded for Oc1c2c(nc3ccc(Br)cc13)CCCC2 [MLS000074180-01] . label 0

State whether 4000 nM exceeds AC50 recorded for COc1ccc(CN2C(=O)COC[C@@H]2[C@H](O)c2ccc(NC(=O)c3ccc(C(C)(C)C)cc3)cc2)cc1 [NCGC00392864-01] . label 1

State whether 4000 nM exceeds AC50 recorded for COc1cc2nc(NCCc3cccc(C)c3)n3nc(-c4ccccc4)nc3c2cc1OC [NCGC00112859-01] . label 1

State whether 4000 nM exceeds AC50 recorded for Cc1ccccc1NC(=O)c1cc(C(=O)c2cc(Cl)ccc2O)cn(-c2ccccc2C)c1=O [MLS000374594-01] . label 1

State whether 4000 nM exceeds AC50 recorded for COc1ccccc1N1CCN(C(=O)C2CCCN(S(=O)(=O)c3ccc4c(c3)oc(=O)n4C)C2)CC1 (stereo not shown) [NCGC00140732-01] . label 0

State whether 4000 nM exceeds AC50 recorded for COc1ccccc1Nc1c2c(nc3ccc(NC(=O)/C=C/c4cccc(OC)c4OC)cc13)CCCC2 [NCGC00104013-01] . label 0

State whether 4000 nM exceeds AC50 recorded for Cc1cn(-c2cc(C(=O)Nc3ccc(C)c(NC(=O)C(=O)c4c[nH]c5ccccc45)c3)cc(C(F)(F)F)c2)cn1 [MLS003105973-01] . label 1

State whether 4000 nM exceeds AC50 recorded for COc1cc(CN2CC(=O)N(c3ccc(C)c(C)c3)C2=S)cc(OC)c1OC [MLS000583901-01] . label 0

State whether 4000 nM exceeds AC50 recorded for Cc1ccc(C2=CC(c3ccc(Cl)cc3)n3nc(-c4ccc(C)cc4)nc3N2)cc1 (stereo not shown) [NCGC00105128-01] . label 1

State whether 4000 nM exceeds AC50 recorded for CCn1cnc2c(Nc3cc(F)cc(F)c3)nc(C#N)nc21 [MLS002471782-01] . label 1

State whether 4000 nM exceeds AC50 recorded for COc1cc(O)c(C(CCN2CCCC(C)C2)c2ccc3c(c2)OCO3)c(OC)c1 (stereo not shown) [MLS000879506-01] . label 1

State whether 4000 nM exceeds AC50 recorded for CCCCNc1cc(C)nc(NCc2ccccc2)n1 [MLS000078573-01] . label 0

State whether 4000 nM exceeds AC50 recorded for CCC(CC)c1cc([C@H]2CN3CC[C@H]2C[C@@H]3COC(=O)Nc2ccc(C(C)(C)C)cc2)nc(-c2ccncc2)n1 [NCGC00394559-01] . label 1

State whether 4000 nM exceeds AC50 recorded for Cc1ccc(NC(=O)c2c(C)oc3ccc(O)c(CN(C)Cc4ccccc4)c23)c(C)c1 [NCGC00115687-01] . label 0

State whether 4000 nM exceeds AC50 recorded for O=C(C[n+]1c2n(c3ccccc31)CC(O)CS2)c1ccccc1 (stereo not shown) [MLS000687555-01] . label 0

State whether 4000 nM exceeds AC50 recorded for Nc1nonc1-n1nnc(C(=O)N/N=C/c2cccs2)c1-c1ccc2c(c1)OCO2 [MLS001142649-01] . label 1

State whether 4000 nM exceeds AC50 recorded for O=C(Nc1ccc([N+](=O)[O-])cc1)Nc1nc(-c2ccc(Cl)s2)cs1 [MLS000722351-01] . label 1

State whether 4000 nM exceeds AC50 recorded for CCCOc1cccc(C2c3c(oc4cc(C)c(C)cc4c3=O)C(=O)N2CCCN2CCOCC2)c1 (stereo not shown) [NCGC00101917-01] . label 0

State whether 4000 nM exceeds AC50 recorded for CC(C)c1nc(-c2ccc(OC3CCN(C(=O)CCc4nc5ccccc5[nH]4)C3)cc2)no1 (stereo not shown) [NCGC00441007-01] . label 0
